tested on: IL-8-induced neutrophil shape change in human whole blood; assay: Whole blood neutrophil shape change assay (L); type: cell-based; details: Homo sapiens, Neutrophil, IL-8, human whole blood, read-out: Assay L WBSC IC50
Where a name gives a salt, the structure may show the parent alone.
Hi! Just check whether IC50 is below 1 µM. Below gives 1, equal or above gives 0.

- compound: "Cc1ccc(S(=O)(=O)NCCC(C)(C)O)cc1-c1cnc(N)c(-c2cnn(Cc3ccccc3)c2)n1 [Example 132, hydrochloride]"
  system: "IL-8-induced neutrophil shape change in human whole blood"
  assigned_label: 1
- compound: "Cc1cn(-c2nc(-c3cc(S(=O)(=O)NCCC(C)(C)O)ccc3C)cnc2N)cn1 [Example 63]"
  system: "IL-8-induced neutrophil shape change in human whole blood"
  assigned_label: 1
- compound: "Cc1ccc(S(=O)(=O)NCC(C)(C)O)cc1-c1cnc(N)c(-c2cc(C3CC3)no2)n1 [Example 79]"
  system: "IL-8-induced neutrophil shape change in human whole blood"
  assigned_label: 0
- compound: "Cc1ncn(-c2nc(-c3cc(S(=O)(=O)NCC(C)(C)O)ccc3C)cnc2N)n1 [Example 25]"
  system: "IL-8-induced neutrophil shape change in human whole blood"
  assigned_label: 1
- compound: "Cc1ccc(S(=O)(=O)NC2CCOCC2)cc1-c1cnc(N)c(-n2cncn2)n1 [Example 68]"
  system: "IL-8-induced neutrophil shape change in human whole blood"
  assigned_label: 0
- compound: "Cc1ccc(S(=O)(=O)NCCC(C)(C)O)cc1-c1cnc(N)c(-c2cn[nH]c2)n1 [Example 119.33]"
  system: "IL-8-induced neutrophil shape change in human whole blood"
  assigned_label: 1
- compound: "Cc1ccc(S(=O)(=O)NCC(C)(C)CO)cc1-c1cnc(N)c(-c2cc(C3CC3)no2)n1 [Example 99]"
  system: "IL-8-induced neutrophil shape change in human whole blood"
  assigned_label: 0
- compound: "CCN1CCC[C@@H]1CNS(=O)(=O)c1ccc(C)c(-c2cnc(N)c(-c3ccnc(C)c3)n2)c1 [Example 129.25]"
  system: "IL-8-induced neutrophil shape change in human whole blood"
  assigned_label: 0
- compound: "Cc1ccc(S(=O)(=O)NCCC(C)(C)O)cc1-c1cnc(N)c(-c2cc[nH]n2)n1 [Example 119.42]"
  system: "IL-8-induced neutrophil shape change in human whole blood"
  assigned_label: 0
- compound: "Cc1csc(-c2nc(-c3cc(S(=O)(=O)NCC(C)(C)O)ccc3C)cnc2N)n1 [Example 80]"
  system: "IL-8-induced neutrophil shape change in human whole blood"
  assigned_label: 0
- compound: "CCc1noc(-c2nc(-c3cc(S(=O)(=O)N[C@H]4CC[C@H](O)CC4)ccc3C)cnc2N)n1 [Example 139]"
  system: "IL-8-induced neutrophil shape change in human whole blood"
  assigned_label: 1
- compound: "CC(C)(O)CCNS(=O)(=O)c1ccc(Cl)c(-c2cnc(N)c(-n3cncn3)n2)c1 [Example 38]"
  system: "IL-8-induced neutrophil shape change in human whole blood"
  assigned_label: 0
- compound: "Cc1ccc(S(=O)(=O)NC2(CO)CC2)cc1-c1cnc(N)c(-n2cncn2)n1 [Example 98]"
  system: "IL-8-induced neutrophil shape change in human whole blood"
  assigned_label: 0
- compound: "Cc1ccc(S(=O)(=O)N[C@H]2CC[C@H](O)CC2)cc1-c1cnc(N)c(-c2cnn(C)c2)n1 [Example 58]"
  system: "IL-8-induced neutrophil shape change in human whole blood"
  assigned_label: 1
- compound: "Cc1ccc(S(=O)(=O)NCCC(C)(C)O)cc1-c1cnc(N)c(-n2cncn2)n1 [Example 64]"
  system: "IL-8-induced neutrophil shape change in human whole blood"
  assigned_label: 1
- compound: "Cc1cn(-c2nc(-c3cc(S(=O)(=O)N[C@H]4CC[C@H](O)CC4)ccc3C)cnc2N)cn1 [Example 56]"
  system: "IL-8-induced neutrophil shape change in human whole blood"
  assigned_label: 1
- compound: "Cc1ccc(S(=O)(=O)NCCC(C)(C)O)cc1-c1cnc(N)c(-c2ccncc2)n1 [Example 119.27]"
  system: "IL-8-induced neutrophil shape change in human whole blood"
  assigned_label: 1
- compound: "Cc1ccc(S(=O)(=O)NCCC2(O)CCCC2)cc1-c1cnc(N)c(-n2cncn2)n1 [Example 127.36]"
  system: "IL-8-induced neutrophil shape change in human whole blood"
  assigned_label: 0
- compound: "Cc1ccc(S(=O)(=O)NCCC(C)(C)O)cc1-c1cnc(N)c(-c2cnn(CC(F)(F)F)c2)n1 [Example 130]"
  system: "IL-8-induced neutrophil shape change in human whole blood"
  assigned_label: 1
- compound: "Cc1ccc(S(=O)(=O)N2CCC(F)C2)cc1-c1cnc(N)c(-n2cncn2)n1 (stereo not shown) [Example 127.2]"
  system: "IL-8-induced neutrophil shape change in human whole blood"
  assigned_label: 0
- compound: "Cc1ccc(S(=O)(=O)NCCC(C)(C)O)cc1-c1cnc(N)c(-n2cnc(C3CC3)n2)n1 [Example 26]"
  system: "IL-8-induced neutrophil shape change in human whole blood"
  assigned_label: 1
- compound: "Cc1cc(F)c(S(=O)(=O)NCCCO)cc1-c1cnc(N)c(-c2cnn(C)c2)n1 [Example 114]"
  system: "IL-8-induced neutrophil shape change in human whole blood"
  assigned_label: 1
- compound: "Cc1ccc(S(=O)(=O)NC2CCC2)cc1-c1cnc(N)c(-n2cncn2)n1 [Example 127.54]"
  system: "IL-8-induced neutrophil shape change in human whole blood"
  assigned_label: 0
- compound: "Cc1ccc(S(=O)(=O)NCC(C)(C)O)cc1-c1cnc(N)c(-c2cnc(C3CC3)s2)n1 [Example 21]"
  system: "IL-8-induced neutrophil shape change in human whole blood"
  assigned_label: 1
- compound: "Cc1ccc(S(=O)(=O)NC[C@@H]2CCNC2)cc1-c1cnc(N)c(-n2cncn2)n1 [Example 127.57, trifluoroacetic acid salt]"
  system: "IL-8-induced neutrophil shape change in human whole blood"
  assigned_label: 0
- compound: "Cc1ncc(-c2nc(-c3cc(S(=O)(=O)NC[C@H]4C[C@H](O)C4)ccc3C)cnc2N)s1 [Example 20b]"
  system: "IL-8-induced neutrophil shape change in human whole blood"
  assigned_label: 1
- compound: "Cc1ccc(S(=O)(=O)N[C@H]2CC[C@H](O)CC2)cc1-c1cnc(N)c(-c2cncnc2)n1 [Example 59]"
  system: "IL-8-induced neutrophil shape change in human whole blood"
  assigned_label: 1
- compound: "CCn1cc(-c2nc(-c3cc(S(=O)(=O)NCCC(C)(C)O)ccc3C)cnc2N)cn1 [Example 119.34]"
  system: "IL-8-induced neutrophil shape change in human whole blood"
  assigned_label: 0
- compound: "Cc1noc(-c2nc(-c3cc(S(=O)(=O)NCC(C)(C)CO)ccc3C)cnc2N)n1 [Example 92]"
  system: "IL-8-induced neutrophil shape change in human whole blood"
  assigned_label: 0
- compound: "Cc1ccc(S(=O)(=O)NCC2CCCOC2)cc1-c1cnc(N)c(-n2cncn2)n1 (stereo not shown) [Example 127.19]"
  system: "IL-8-induced neutrophil shape change in human whole blood"
  assigned_label: 0
